assay: Apparent volume of distribution in terminal phase in healthy human at 50 mg, po administered as single dose coadministered with 100 mg of ritonavir; assay type: ADME, organism-based; settings: in vivo, read-out: Vz/F
Readout label: Vd/F

>>> value_observed("CCN1c2ncc(CCOc3cc[n+]([O-])c4ccccc34)cc2C(=O)N(C)c2cccnc21")
"129 L"

====

test: AUC (0 to last) in high fat fed healthy human at 50 mg, po administered as single dose coadministered with 100 mg of ritonavir; type: ADME, organism-based; design: dose 50 mg, route oral, time 0 - last; details: plasma
Readout label: AUC(0-t) (ng·h/mL)

>>> value_observed("CCN1c2ncc(CCOc3cc[n+]([O-])c4ccccc34)cc2C(=O)N(C)c2cccnc21 [BILR 355]")
7970

====

assay: Drug excretion in healthy human urine assessed as unchanged drug in healthy human at 12.5 mg, po administered as single dose by high-pressure liquid chromatography-tandem mass spectrometry/mass spectrometry method; assay type: ADME, organism-based; details: read-out: Drug uptake
Readout label: dose excreted (%)

>>> value_observed("CCN1c2ncc(CCOc3cc[n+]([O-])c4ccccc34)cc2C(=O)N(C)c2cccnc21")
0.212

====

test: Renal clearance in healthy human at 75 mg, po administered as single dose by high-pressure liquid chromatography-tandem mass spectrometry/mass spectrometry method; assay type: ADME, organism-based, Kidney; settings: in vivo, read-out: CL_renal (converted)
Readout label: CL renal (mL/min)

>>> value_observed("CCN1c2ncc(CCOc3cc[n+]([O-])c4ccccc34)cc2C(=O)N(C)c2cccnc21")
10.2

====

assay: Apparent volume of distribution at steady state in healthy human at 12.5 mg, po administered as single dose coadministered with 100 mg of ritonavir; type: ADME, organism-based; settings: in vivo, read-out: Vss/F
Readout label: Vd/F (L)

>>> value_observed("CCN1c2ncc(CCOc3cc[n+]([O-])c4ccccc34)cc2C(=O)N(C)c2cccnc21")
153

====

experiment: Renal clearance in healthy human at 75 mg, po administered as single dose coadministered with 100 mg of ritonavir by high-pressure liquid chromatography-tandem mass spectrometry/mass spectrometry method; format: ADME, organism-based, Kidney; conditions: in vivo, read-out: CL_renal (converted)
Readout label: CL renal (mL/min)

>>> value_observed("CCN1c2ncc(CCOc3cc[n+]([O-])c4ccccc34)cc2C(=O)N(C)c2cccnc21")
5.85

====

experiment: Apparent volume of distribution in terminal phase in healthy human at 87.5 mg, po administered as single dose coadministered with 100 mg of ritonavir; type: ADME, organism-based; details: in vivo, read-out: Vz/F
Readout label: Vd/F (L)

>>> value_observed("CCN1c2ncc(CCOc3cc[n+]([O-])c4ccccc34)cc2C(=O)N(C)c2cccnc21 [BILR 355]")
114

====

assay: Half life in healthy human at 5 mg, po administered as single dose coadministered with 100 mg of ritonavir; format: ADME, organism-based; conditions: in vivo
Readout label: half-life

>>> value_observed("CCN1c2ncc(CCOc3cc[n+]([O-])c4ccccc34)cc2C(=O)N(C)c2cccnc21 [BILR 355]")
"14.7 h"

====

experiment: Apparent volume of distribution at steady state in healthy human at 37.5 mg, po administered as single dose coadministered with 100 mg of ritonavir; format: ADME, organism-based; settings: in vivo, read-out: Vss/F
Readout label: Vd/F (L)

>>> value_observed("CCN1c2ncc(CCOc3cc[n+]([O-])c4ccccc34)cc2C(=O)N(C)c2cccnc21")
105

====

assay: Drug excretion in healthy human urine assessed as unchanged drug at 75 mg, po administered as single dose by high-pressure liquid chromatography-tandem mass spectrometry/mass spectrometry method; type: ADME, organism-based; conditions: read-out: Drug uptake
Readout label: dose excreted (%)

>>> value_observed("CCN1c2ncc(CCOc3cc[n+]([O-])c4ccccc34)cc2C(=O)N(C)c2cccnc21")
0.602

====

assay: Half life in healthy human at 5 mg, po administered as single dose; type: ADME, organism-based; details: in vivo
Readout label: half-life (h)

>>> value_observed("CCN1c2ncc(CCOc3cc[n+]([O-])c4ccccc34)cc2C(=O)N(C)c2cccnc21")
5.02

====

assay: Mean residence time in healthy human at 37.5 mg, po administered as single dose coadministered with 100 mg of ritonavir; format: ADME, organism-based; conditions: in vivo
Readout label: MRT (h)

>>> value_observed("CCN1c2ncc(CCOc3cc[n+]([O-])c4ccccc34)cc2C(=O)N(C)c2cccnc21")
16.9

====

test: Apparent volume of distribution in terminal phase in healthy human at 5 mg, po administered as single dose coadministered with 100 mg of ritonavir; type: ADME, organism-based; settings: in vivo, read-out: Vz/F
Readout label: Vd/F (L)

>>> value_observed("CCN1c2ncc(CCOc3cc[n+]([O-])c4ccccc34)cc2C(=O)N(C)c2cccnc21 [BILR 355]")
153

====

assay: Half life in healthy human at 12.5 mg, po administered as single dose coadministered with 100 mg of ritonavir; type: ADME, organism-based; conditions: in vivo
Readout label: half-life (h)

>>> value_observed("CCN1c2ncc(CCOc3cc[n+]([O-])c4ccccc34)cc2C(=O)N(C)c2cccnc21 [BILR 355]")
15.9

====

experiment: Apparent volume of distribution at steady state in healthy human at 75 mg, po administered as single dose coadministered with 100 mg of ritonavir; assay type: ADME, organism-based; conditions: in vivo, read-out: Vss/F
Readout label: Vd/F

>>> value_observed("CCN1c2ncc(CCOc3cc[n+]([O-])c4ccccc34)cc2C(=O)N(C)c2cccnc21")
"105 L"

====

assay: AUC (0 to infinity) in healthy human at 5 mg, po administered as single dose coadministered with 100 mg of ritonavir; assay type: ADME, organism-based; design: dose 5 mg, time infinity, route oral; details: plasma
Readout label: AUC(0-inf) (ng·h/mL)

>>> value_observed("CCN1c2ncc(CCOc3cc[n+]([O-])c4ccccc34)cc2C(=O)N(C)c2cccnc21 [BILR 355]")
707

====

assay: Cmax in healthy human at 25 mg, po administered as single dose coadministered with 100 mg of ritonavir by high-pressure liquid chromatography-tandem mass spectrometry/mass spectrometry method; type: ADME, organism-based; design: dose 25 mg, route oral; conditions: in vivo
Readout label: Cmax (ng/mL)

>>> value_observed("CCN1c2ncc(CCOc3cc[n+]([O-])c4ccccc34)cc2C(=O)N(C)c2cccnc21")
226

====

assay: AUC (0 to last) in healthy human at 100 mg, po administered as single dose; assay type: ADME, organism-based; set-up: dose 100 mg, time 0 - last, route oral; conditions: plasma
Readout label: AUC(0-t)

>>> value_observed("CCN1c2ncc(CCOc3cc[n+]([O-])c4ccccc34)cc2C(=O)N(C)c2cccnc21")
"1.3 µg·h/mL"

====

experiment: Half life in high fat fed healthy human at 50 mg, po administered as single dose coadministered with 100 mg of ritonavir; type: ADME, organism-based; settings: in vivo
Readout label: half-life (h)

>>> value_observed("CCN1c2ncc(CCOc3cc[n+]([O-])c4ccccc34)cc2C(=O)N(C)c2cccnc21 [BILR 355]")
11

====

test: AUC (0 to infinity) in healthy human at 75 mg, po administered as single dose coadministered with 100 mg of ritonavir; type: ADME, organism-based; parameters: dose 75 mg, route oral, time infinity; details: plasma
Readout label: AUC(0-inf) (ng·h/mL)

>>> value_observed("CCN1c2ncc(CCOc3cc[n+]([O-])c4ccccc34)cc2C(=O)N(C)c2cccnc21 [BILR 355]")
12300

====

test: Tmax in healthy human at 25 mg, po administered as single dose; assay type: ADME, organism-based; details: in vivo
Readout label: Tmax (min)

>>> value_observed("CCN1c2ncc(CCOc3cc[n+]([O-])c4ccccc34)cc2C(=O)N(C)c2cccnc21")
50

====

assay: Apparent volume of distribution in terminal phase in healthy human at 25 mg, po administered as single dose coadministered with 100 mg of ritonavir; format: ADME, organism-based; conditions: in vivo, read-out: Vz/F
Readout label: Vd/F (L)

>>> value_observed("CCN1c2ncc(CCOc3cc[n+]([O-])c4ccccc34)cc2C(=O)N(C)c2cccnc21")
97.6

====

experiment: AUC (0 to infinity) in healthy human at 50 mg, po administered as single dose; format: ADME, organism-based; parameters: dose 50 mg, time infinity, route oral; details: plasma
Readout label: AUC(0-inf) (ng·h/mL)

>>> value_observed("CCN1c2ncc(CCOc3cc[n+]([O-])c4ccccc34)cc2C(=O)N(C)c2cccnc21")
419

====

assay: AUC (0 to last) in healthy human at 50 mg, po administered as single dose coadministered with 100 mg of ritonavir; type: ADME, organism-based; parameters: dose 50 mg, time 0 - last, route oral; conditions: plasma
Readout label: AUC(0-t) (ng·h/mL)

>>> value_observed("CCN1c2ncc(CCOc3cc[n+]([O-])c4ccccc34)cc2C(=O)N(C)c2cccnc21")
6540
